- TARGET_UNDER_TEST: IL18 (Homo sapiens, UniProt Q14116)
- Sequence (Q14116 37-193): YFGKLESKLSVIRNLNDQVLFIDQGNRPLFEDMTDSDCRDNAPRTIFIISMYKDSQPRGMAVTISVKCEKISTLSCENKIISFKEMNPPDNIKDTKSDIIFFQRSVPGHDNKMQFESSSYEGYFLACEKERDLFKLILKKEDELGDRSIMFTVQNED
- TEST_PROTOCOL: Microscale Thermophoresis (MST) binding
- Design: Recombinant IL18 was fluorescently labelled using the lysine reactive Pico RED NT647 dye
- CONDITION_DETAILS: FIG. 9C
- Protocol: Microscale Thermophoresis Recombinant IL18 was fluorescently labelled using the lysine reactive Pico RED NT647 dye from NanoTemper Technologies and stored in a PBS buffer containing 0.05% TWEEN (Buffer A). […] Experiments were performed on a Monolith NT.115Pico machine (NanoTemper Technologies GmbH, Germany). […] Evaluation strategy for all analyses was standardized to measure relative change of fluorescence (FNorm %) over a 2.5 second of laser induced temperature shift per capillary. […]
MEASUREMENT_NAME: pKd
In textbook form, pKd equals minus log to base ten of the concentration in mol/L.

Req: Find pKd (IL18 (Homo sapiens, UniProt Q14116)) for the entry "CC(C)c1ccc(NC(=N)NC(=N)N)cc1"
Resp: 5.25
